IC90 by entry:
Biological target: plasma kallikrein (Homo sapiens, UniProt P03952)
Construct: PFR-AMC substrate
Sequence (P03952 20-638): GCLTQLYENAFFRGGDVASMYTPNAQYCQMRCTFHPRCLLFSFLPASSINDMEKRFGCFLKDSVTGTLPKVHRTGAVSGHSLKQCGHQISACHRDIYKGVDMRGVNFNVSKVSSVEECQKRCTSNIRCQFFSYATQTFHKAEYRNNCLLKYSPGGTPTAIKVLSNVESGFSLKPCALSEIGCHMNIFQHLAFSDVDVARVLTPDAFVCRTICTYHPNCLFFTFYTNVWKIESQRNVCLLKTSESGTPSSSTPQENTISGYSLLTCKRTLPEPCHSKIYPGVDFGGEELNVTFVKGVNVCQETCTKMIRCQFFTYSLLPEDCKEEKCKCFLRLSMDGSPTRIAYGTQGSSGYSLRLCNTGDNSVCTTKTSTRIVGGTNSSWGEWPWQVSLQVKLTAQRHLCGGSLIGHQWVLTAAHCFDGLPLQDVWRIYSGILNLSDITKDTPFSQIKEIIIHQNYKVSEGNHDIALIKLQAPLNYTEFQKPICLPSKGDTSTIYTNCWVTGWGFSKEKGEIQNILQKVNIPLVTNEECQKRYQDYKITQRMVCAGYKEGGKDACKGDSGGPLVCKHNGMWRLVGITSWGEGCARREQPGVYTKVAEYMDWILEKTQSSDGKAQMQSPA
Assay: Neat Human Plasma Assay (Fluorogenic Peptide), contact pathway-activated (FXIIa) plasma
Type: biochemical
Settings: human citrated plasma 78% final; 10 nM human FXIIa; PFR-AMC substrate; 5 minutes; room temperature
ASSAY READOUT: IC90

>>> result("Cc1cc2c(N)nccc2c(C)c1CNC(=O)c1cnn(Cc2ccc(CC(=O)N3CC4CC4C3)cc2)c1 (stereo not shown)")
"1000 to 5000 nM"
>>> result("Cc1cc2c(N)nccc2c(C)c1CNc1cc(OC(C)c2ccc(Cn3cccn3)cc2)cnn1 (single isomer, unassigned)")
"≤ 1000 nM"
>>> result("Cc1cc2c(N)nccc2c(C)c1CNc1cc(OCc2ccc(Cn3cccn3)cc2)ncn1")
"> 5000 nM"
>>> result("Cc1cc2c(N)nccc2c(C)c1CNc1cc(OCc2ccc3ncc(C4CC4)cc3c2)ncn1")
"> 5000 nM"
>>> result("Cc1cc2c(N)nccc2c(C)c1CNc1cc(NCc2ccc(Cn3cccn3)cc2)c(C(F)(F)F)nn1")
"1000 to 5000 nM"
>>> result("Cc1cc2c(N)nccc2c(C)c1CNc1cc(OCc2cn3nc(C4CC4)ccc3n2)ncn1")
"1000 to 5000 nM"
>>> result("Cc1cc2c(N)nccc2c(C)c1CNC(=O)c1cnn(Cc2cn3cc(Cl)ccc3n2)c1")
"≤ 1000 nM"
>>> result("Cc1cc2c(N)nccc2c(C)c1CNc1cc(OCc2cn3cc(C4CC4)cc(C#N)c3n2)ncn1")
"> 5000 nM"
>>> result("Cc1cc2c(N)nccc2c(C)c1CNC(=O)c1cnn(Cc2nc3ccc(C4CC4)cn3n2)c1")
"≤ 1000 nM"
>>> result("Cc1cc2c(N)nccc2c(C)c1CNc1cc(OCc2ccc3ncc(C4CC4)cc3c2)ccn1")
"> 5000 nM"
>>> result("Cc1cc2c(N)nccc2c(C)c1CNc1cc(OCc2cc3cc(C4CC4)cc(N4CCOC4=O)n3n2)ncn1")
"≤ 1000 nM"
>>> result("Cc1cc2c(N)nccc2c(C)c1CNc1cc(OCc2ccc(Cn3cccn3)cc2)cnn1")
"1000 to 5000 nM"
>>> result("Cc1cc2c(N)nccc2c(C)c1CNc1cc2c(cn1)nnn2Cc1cn2cc(C3CC3)ccc2n1")
"≤ 1000 nM"
>>> result("Cc1cc2c(N)nccc2c(C)c1CNc1cc(OCc2cc3cc(C4CC4)cnc3s2)ncn1")
"> 5000 nM"
>>> result("Cc1cc2c(N)nccc2c(C)c1CNc1nccc2cn(Cc3cn4nc(C5CC5)ccc4n3)nc12")
"≤ 1000 nM"
>>> result("Cc1cc2c(N)nccc2c(C)c1CNc1cc2c(ccn2Cc2cc3cc(C4CC4)cnc3s2)cn1")
"1000 to 5000 nM"
>>> result("Cc1cc2c(N)nccc2c(C)c1CNc1cc(NCc2cn3cc(C4CC4)ccc3n2)ncn1")
"1000 to 5000 nM"
>>> result("Cc1ccc2cc(COc3cc(NCc4c(C)cc5c(N)nccc5c4C)ncn3)ccc2n1")
"1000 to 5000 nM"
>>> result("Cc1cc2c(N)nccc2c(C)c1CNc1nccn2nc(Cc3cn4cc(C5CC5)ccc4n3)nc12")
"1000 to 5000 nM"
>>> result("Cc1cc2c(N)nccc2c(C)c1CNc1cc(OCc2cc3cc(C4CC4)cc(CCC(=O)O)n3n2)ncn1")
"> 5000 nM"
>>> result("Cc1cc2c(N)nccc2c(C)c1CNc1nccc2nn(Cc3cn4cc(C5CC5)ccc4n3)cc12")
"≤ 1000 nM"
>>> result("Cc1cc2c(N)nccc2c(C)c1CNC(=O)c1cnn(Cc2ccc3ncc(Cl)cc3c2)c1")
"≤ 1000 nM"
>>> result("Cc1cc2c(N)nccc2c(C)c1CNc1cc(NCc2cc3cc(C4CC4)cnc3s2)ncn1")
"≤ 1000 nM"
>>> result("Cc1cc2c(N)nccc2c(C)c1CNc1cc(Cc2cn3cc(C4CC4)ccc3n2)ncn1")
"1000 to 5000 nM"
>>> result("Cc1cc2c(N)nccc2c(C)c1CNc1cc(NCc2cn3nc(C4CC4)ccc3n2)ncn1")
"1000 to 5000 nM"
>>> result("Cc1cc2c(N)nccc2c(C)c1CNc1cc(OCc2nc3ncc(C4CC4)cn3n2)ncn1")
"1000 to 5000 nM"
>>> result("Cc1cc2c(N)nccc2c(C)c1CNc1cc2c(cn1)c(F)cn2Cc1cn2cc(C3CC3)ccc2n1")
"1000 to 5000 nM"
>>> result("Cc1cc2c(N)nccc2c(C)c1CNc1nccc2nn(Cc3cn4cc(C5CC5)cnc4n3)cc12")
"≤ 1000 nM"
>>> result("Cc1cc2c(N)nccc2c(C)c1CNc1cc(NCc2ccc3ncc(C4CC4)cc3c2)ncn1")
"1000 to 5000 nM"
>>> result("Cc1cc2c(N)nccc2c(C)c1CNc1cc(OCc2cnc3ccc(C4CC4)cc3c2)ncn1")
"> 5000 nM"
>>> result("Cc1cc2c(N)nccc2c(C)c1CNc1cc(N2C[C@@H](O)C[C@@H]2c2cn3cc(C4CC4)ccc3n2)ncn1")
"≤ 1000 nM"
